biological target: the molecule itself; test: SDS-PAGE; purified proteins on Bio-Rad AnyKd gel, InstantBlue staining; apparent monomer and dimer bands
measured quantity: binding result

>  <protein>
SUMO-Mms6 D49A (natural protein, Magnetospirillum magneticum AMB-1, Mms6, Magnetospirillum magneticum AMB-1, mature form; numbers count on: the mature protein; Same tags and construct as m1; source: E. coli BL21 (DE3) Star, purified (nickel column, dialysis); not shown: His6, N-terminal, kept; SUMO (yeast), N-terminal, kept) GGTIWTGKGLGLGLGLGLGAWGPIILGVVGAGAVYAYMKSRDIESAQSAEEVELRDALA

>  <measurement>
binds

$$$$
>  <protein>
SUMO-Mms6 E53A (natural protein, Magnetospirillum magneticum AMB-1, Mms6, Magnetospirillum magneticum AMB-1, mature form; numbers count on: the mature protein; Same tags and construct as m1; source: E. coli BL21 (DE3) Star, purified (nickel column, dialysis); not shown: His6, N-terminal, kept; SUMO (yeast), N-terminal, kept) GGTIWTGKGLGLGLGLGLGAWGPIILGVVGAGAVYAYMKSRDIESAQSDEEVALRDALA

>  <measurement>
binds

$$$$
>  <protein>
SUMO-Mms6 EE50AA (natural protein, Magnetospirillum magneticum AMB-1, Mms6, Magnetospirillum magneticum AMB-1, mature form; numbers count on: the mature protein; Same tags and construct as m1; also called double mutant; source: E. coli BL21 (DE3) Star, purified (nickel column, dialysis); not shown: His6, N-terminal, kept; SUMO (yeast), N-terminal, kept) GGTIWTGKGLGLGLGLGLGAWGPIILGVVGAGAVYAYMKSRDIESAQSDAAVELRDALA

>  <measurement>
binds

$$$$
